B1: HDV Ribozyme (parent)
chain: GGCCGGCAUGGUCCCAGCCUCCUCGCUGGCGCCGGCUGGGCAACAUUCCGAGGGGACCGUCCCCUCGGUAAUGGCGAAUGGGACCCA

variants of: B1; assay: self-cleavage, relative activity (ratio to wild type); higher = more cleavage; co-transcriptional
Measurement Label: self-cleavage

Here are 10 variants together with their reported answers.
INSERT INTO results (variant_annotation, assay_value) VALUES
  ('G17U G67A', 0.564),
  ('C13A G35C', 0.0339),
  ('C33U C86A', 0.746),
  ('G40U A43G', 0.54),
  ('C62A G68A', 0.842),
  ('G11C A45U', 0.0554),
  ('U9A C57G', 1.18),
  ('A71U G76U', 1.17),
  ('G10U G31A', 0.29),
  ('A43G U69G', 0.867);

Lab note: each variant below needs its self-cleavage filled in.
1. C18U G38A
2. G11U G67U

1. 0.176
2. 0.168
